Where these numbers come from: patent US20120059162A1

Target: TTK (Homo sapiens)
Assay: TTK assay: screening of TTK kinase activity suppressing action using p38 MAPK peptide
Type: biochemical
Conditions: p38 MAPK peptide substrate; read-out: TTK IC50
Method: Screening of a compound having a TTK kinase activity suppressing action using p38 MAPK peptide […] From the resultant mixture, an aliquot of 1.7 μL was taken out and mixed with the reaction terminating solution (60 μl) in the wells of a 384-well microtiter plate (manufactured by Corning Incorporated) made of polypropylene. […] Based on the fluorescence value in the absence of a test substance, the suppression activity of a test substance was measured.
pIC50: −log10 of the molar value.
Quick rule for you: pIC50 at 8 or higher means MET, lower means NOT MET.

Solved entries (count: 5):
>  <compound>
O=C(NC1CC1)c1ccc(-c2cnc3c(NCc4ccc(=O)[nH]c4)cc(NC4CCCCC4)nn23)cc1

>  <class.name>
MET

$$$$
>  <compound>
O=C(NC1CC1)c1ccc(-c2cnc3c(NCC4CCOCC4)cc(NC4C5CC6CC(C5)CC4C6)nn23)cc1 (stereo not drawn)

>  <class.name>
MET

$$$$
>  <compound>
Cn1cc(CNc2cc(NC3CCCCC3)nn3c(-c4ccc(C(=O)NC5CC5)cc4)cnc23)cn1

>  <class.name>
MET

$$$$
>  <compound>
Cn1cnc(CNc2cc(NC3CCCCC3)nn3c(-c4ccc(C(=O)NC5CC5)cc4)cnc23)c1

>  <class.name>
MET

$$$$
>  <compound>
CC(C)CN(CC(F)(F)F)c1cc(NCC2CCOCC2)c2ncc(-c3ccc(C(=O)NC4CC4)cc3)n2n1

>  <class.name>
MET

$$$$

Prompt line: Determine whether this compound has pIC50 no lower than 8: CC(C)(C)CC(C)(C)Nc1cc(NCC2CCOCC2)c2ncc(-c3ccc(C(=O)NC4CC4)cc3)n2n1
Response line: MET

Prompt line: Determine whether this compound has pIC50 no lower than 8: O=C(NC1CC1)c1ccc(-c2cnc3c(NCc4ccccn4)cc(NC4CCCCC4)nn23)cc1
Response line: MET

Prompt line: Determine whether this compound has pIC50 no lower than 8: Cn1ccc(CNc2cc(NC3CCCCC3)nn3c(-c4ccc(C(=O)NC5CC5)cc4)cnc23)n1
Response line: NOT MET

Prompt line: Determine whether this compound has pIC50 no lower than 8: O=C(NC1CC1)c1ccc(-c2cnc3c(NCC4CCOCC4)cc(NC4CCC4)nn23)cc1
Response line: MET

Prompt line: Determine whether this compound has pIC50 no lower than 8: Cc1ccccc1Oc1cc(NCC2CCOCC2)c2ncc(-c3ccc(C(=O)NC4CC4)cc3)n2n1
Response line: MET

====

Target: UniProt P33981
Test: TTK assay: screening of TTK kinase activity suppressing action using p38 MAPK peptide
Format: biochemical
Details: p38 MAPK peptide substrate; read-out: TTK IC50
Protocol: Screening of a compound having a TTK kinase activity suppressing action using p38 MAPK peptide […] From the resultant mixture, an aliquot of 1.7 μL was taken out and mixed with the reaction terminating solution (60 μl) in the wells of a 384-well microtiter plate (manufactured by Corning Incorporated) made of polypropylene. […] Based on the fluorescence value in the absence of a test substance, the suppression activity of a test substance was measured.
result.type: IC50 (nM)
Give just the number in nM; leave the unit off.

Answered cases to consult:
>  <molecule>
COc1cccc(Oc2cc(NCC3CCOCC3)c3ncc(-c4ccc(C(=O)NC5CC5)cc4)n3n2)c1

>  <result.type>
IC50

>  <unit.of.measurement>
nM

>  <recorded.number>
3.3

$$$$
>  <molecule>
COCCN(c1cc(NCC2CCOCC2)c2ncc(-c3ccc(C(=O)NC4CC4)cc3)n2n1)C1CCCC1

>  <result.type>
IC50

>  <unit.of.measurement>
nM

>  <recorded.number>
6.2

$$$$

--- query ---
Prompt line: Could you share which IC50 value was measured for CC(=O)NCC1CN(c2cc(NCC3CCOCC3)c3ncc(-c4ccc(C(=O)NC5CC5)cc4)n3n2)CCO1 (stereo not drawn) ?
Response line: 13.9

====

# reported IC50; entries follow
Target: TTK (Homo sapiens)
Test: TTK assay: screening of TTK kinase activity suppressing action using p38 MAPK peptide
Assay type: biochemical
Conditions: p38 MAPK peptide substrate; read-out: TTK IC50
Protocol: Screening of a compound having a TTK kinase activity suppressing action using p38 MAPK peptide […] From the resultant mixture, an aliquot of 1.7 μL was taken out and mixed with the reaction terminating solution (60 μl) in the wells of a 384-well microtiter plate (manufactured by Corning Incorporated) made of polypropylene. […] Based on the fluorescence value in the absence of a test substance, the suppression activity of a test substance was measured.
Give just the number in µM; leave the unit off.

>  <smiles.text>
N#Cc1ccc(-c2cn3c(-c4ccc(C(=O)NC5CC5)cc4)cnc3c(NCc3nccs3)n2)cc1

>  <IC50, µM>
0.0196

$$$$

Prompt line: Could you share which IC50 value was measured for O=C(NC1CC1)c1ccc(-c2cnc3c(NCC4CCOCC4)cc(N4CCN(C(=O)C5CC5)CC4)nn23)cc1 ?
Response line: 0.0031

Prompt line: Could you share which IC50 value was measured for N#Cc1ccc(-c2cn3c(-c4ccc(C(=O)NC5CC5)cc4)cnc3c(NCCc3cccc(O)c3)n2)cc1 ?
Response line: 0.0171

Prompt line: Could you share which IC50 value was measured for N#Cc1ccc(-c2cn3c(-c4ccc(C(=O)NC5CC5)cc4)cnc3c(NCC3CC3)n2)cc1 ?
Response line: 0.0095

====

tested on: A549; assay: A549 assay: screening of cancer cell growth inhibiting compound; type: cell-based; settings: Homo sapiens, 72 h; A549 cells, three days, WST-8; read-out: A549 IC50
result.type: IC50

>  <compound>
CC(C)CNc1nc(-c2ccc(NC(=O)N3CCN(C)CC3)cc2)cn2c(-c3ccc(C(=O)NC4CC4)cc3)cnc12

>  <target.desc>
A549

>  <result>
1000 to 10000 nM

$$$$
>  <compound>
O=C(NC1CC1)c1ccc(-c2cnc3c(NCC4CCOCC4)cc(NC(=O)C4CCCCC4)nn23)cc1

>  <target.desc>
A549

>  <result>
1000 to 10000 nM

$$$$
>  <compound>
CC(Nc1cc(NCC2CCOCC2)c2ncc(-c3ccc(C(=O)NC4CC4)cc3)n2n1)c1cccs1 (centres unmarked)

>  <target.desc>
A549

>  <result>
50 to 500 nM

$$$$
>  <compound>
CN1CCC(CNc2cc(NC3CCCCC3)nn3c(-c4ccc(C(=O)NC5CC5)cc4)cnc23)CC1

>  <target.desc>
A549

>  <result>
50 to 500 nM

$$$$

Prompt line: Could you share which IC50 value was measured for N#Cc1ccc(-c2cn3c(-c4ccc(C(=O)NC5CC5)cc4)cnc3c(NCCSCCO)n2)cc1 ?
Response line: 50 to 500 nM

Prompt line: Could you share which IC50 value was measured for COCCN(c1cc(NCC2CCOCC2)c2ncc(-c3ccc(C(=O)NC4CC4)cc3)n2n1)C1CCCC1 ?
Response line: 50 to 500 nM

====

Target: TTK (Homo sapiens, UniProt P33981)
Sequence (P33981 1-857): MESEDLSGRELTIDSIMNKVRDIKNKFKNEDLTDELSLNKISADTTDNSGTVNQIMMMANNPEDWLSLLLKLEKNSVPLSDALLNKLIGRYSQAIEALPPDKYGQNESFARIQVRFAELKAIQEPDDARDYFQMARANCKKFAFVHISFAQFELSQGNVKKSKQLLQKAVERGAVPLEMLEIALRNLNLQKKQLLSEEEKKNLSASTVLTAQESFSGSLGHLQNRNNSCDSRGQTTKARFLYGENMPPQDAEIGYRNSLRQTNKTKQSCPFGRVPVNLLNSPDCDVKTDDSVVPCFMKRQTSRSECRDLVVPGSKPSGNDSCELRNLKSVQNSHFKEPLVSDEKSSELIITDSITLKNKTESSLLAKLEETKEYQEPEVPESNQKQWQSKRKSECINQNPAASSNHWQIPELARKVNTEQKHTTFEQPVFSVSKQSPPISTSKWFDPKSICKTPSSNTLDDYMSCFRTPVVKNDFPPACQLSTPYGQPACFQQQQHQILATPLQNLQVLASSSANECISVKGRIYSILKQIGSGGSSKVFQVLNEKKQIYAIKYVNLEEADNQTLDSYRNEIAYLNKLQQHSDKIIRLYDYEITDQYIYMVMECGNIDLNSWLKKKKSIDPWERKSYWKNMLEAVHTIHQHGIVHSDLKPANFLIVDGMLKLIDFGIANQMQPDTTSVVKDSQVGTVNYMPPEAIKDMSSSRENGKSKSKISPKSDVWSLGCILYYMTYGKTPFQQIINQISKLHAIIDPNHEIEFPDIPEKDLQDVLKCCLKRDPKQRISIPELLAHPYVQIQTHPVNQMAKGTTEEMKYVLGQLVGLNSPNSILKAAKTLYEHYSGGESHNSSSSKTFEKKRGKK
Assay: TTK assay: screening of TTK kinase activity suppressing action using p38 MAPK peptide
Type: biochemical
Conditions: p38 MAPK peptide substrate; read-out: TTK IC50
result.type: IC50
The reply should consist of the numeric value with the unit placed after it.

Answered cases to consult:
>  <smiles.text>
CCCNc1cc(NCC2CCOCC2)c2ncc(-c3ccc(C(=O)NC4CC4)cc3)n2n1

>  <target.desc>
TTK (Homo sapiens, UniProt P33981)

>  <IC50>
7 nM

$$$$
>  <smiles.text>
O=C(NC1CC1)c1ccc(-c2cnc3c(NCC4CCOCC4)cc(Oc4cccc(Cl)c4)nn23)cc1

>  <target.desc>
TTK (Homo sapiens, UniProt P33981)

>  <IC50>
2.5 nM

$$$$
>  <smiles.text>
N#Cc1ccc(-c2cn3c(-c4ccc(C(=O)NC5CC5)cc4)cnc3c(NCCCO)n2)cc1

>  <target.desc>
TTK (Homo sapiens, UniProt P33981)

>  <IC50>
14.4 nM

$$$$

--- query ---
Prompt line: Could you share which IC50 value was measured for O=C(NC1CC1)c1ccc(-c2cnc3c(NCC4CCS(=O)(=O)CC4)cc(NC4CCCCC4)nn23)cc1 ?
Response line: 3.8 nM
